Values from the nanobody polyreactivity screen of Harvey et al. (2022)

- PROCEDURE TEXT: yeast display, Sf9 membrane polyspecificity reagent, FACS + sequencing; frameworks hold sequencing errors
QUANTITY MEASURED: polyreactivity (PSR sort gate)

>  <RECORD SEQUENCE>
QVQLVESGGGLLQAGGSLRLSCAASGSTVGINAMGWYRQAPGKERELVASITRRGGSTYYADSVKGRFTISRDNAKNTVYLQMNSLKPEDTAVYYCNKTYRYGTPLYDYWGQGSQVTVSS

>  <REPORTED RESULT>
high polyreactivity

$$$$
>  <RECORD SEQUENCE>
QVQRVESGGGLDQARGSLRLSCAASGITLDRYDMGWYRQAPGKERELVAAISRSGVRTYYADSVKGRFTISRDNAKNTVYLQRNSLKPEDPAVYYCNKGYARRYASGYDYWGQGTQVTVSS

>  <REPORTED RESULT>
high polyreactivity

$$$$
>  <RECORD SEQUENCE>
QVHLVESGGGLVQAGGSLRLSCAASGSTFVTNAMGWYRQAPGKERELVAAITSGAGTYYADSVKGRFTISRDNAKNTVYLQMNSLKPEDTAVYYCAARRYYSRGRYRFGYWGQGTQVTVSS

>  <REPORTED RESULT>
high polyreactivity

$$$$
>  <RECORD SEQUENCE>
QVQLVESGGGLVQAGGSLRLSCAASGFTFRVYVMGWYREAPGKERELVAGITRTGRTYYADSVKGRFTISRDNAKNTVYLQMNSLKPEDTAVYYCAATRPYSHRDYYYWGQGTQVTVSS

>  <REPORTED RESULT>
high polyreactivity

$$$$
>  <RECORD SEQUENCE>
QVQLVESGGGLVQAGGSLRLSCAASGYIFRQNAMGWYRQAPGKERELVAAISRSDDNTFYADSVKGRFTISRDNAKNTVYLLMNSLKPEDTAVYYCAKYAVPWRYPRGYDYWGQGTQVTVSS

>  <REPORTED RESULT>
low polyreactivity

$$$$
>  <RECORD SEQUENCE>
QVQLVESGGGLVQAGGSLRLSCAASGSIFNKNTMGWYRQAPGKERELVAAISGRTGITTYADSVKGRFTISRDNAKNTVYLQMNSLKPEDTAVYYCNAANRWRGSYDYWGQGTQVTVSS

>  <REPORTED RESULT>
high polyreactivity

$$$$
>  <RECORD SEQUENCE>
QVQLVDSGGGLVQAGGSLSLSCAASGYTMGYYTMGWYIEAPGKERELVATISRRGGSTSYADSVKGRFTISRDNAKNTVYLQMNSLKPEDTAVYYCNAQTSGRVGSQYYSYDGSWGQCTQVTVSS

>  <REPORTED RESULT>
high polyreactivity

$$$$
>  <RECORD SEQUENCE>
QVQLVESGGGLVQAGGSLRLSCASSGRTFRRYARGWYRQAPGKERELVATIRSGDNTNYADSVKGRFTISRDNAKNTVYLQMNSLKPEDTAVYYCNRSPKSGQVTYLYSVNAHYDYWGQGTQVTVSS

>  <REPORTED RESULT>
low polyreactivity

$$$$
>  <RECORD SEQUENCE>
QDQLVESGGGLVQAGGSLRLSCAASGGTFKFYAMGWYRQAPGKERELVAAITSGGSTSYADSVKGRFTISRDNAKNTVYLQMNSLKPEDTAVYYCNADFYQRYGVFSSRRYYYWGQGTQVTVSS

>  <REPORTED RESULT>
high polyreactivity

$$$$
>  <RECORD SEQUENCE>
QVQLVESGGGLVQAGGSLRLSCAASGRILPRNAMGRYRQAPGKEREVVAGIYSDGSTNYADSVKGRFTISRDNAKNTVYLQMKSLKPEETAVYYCAKQFSSYQYFIILISPGDYWGQGTQVTVSS

>  <REPORTED RESULT>
low polyreactivity

$$$$
>  <RECORD SEQUENCE>
QVQLVESGGGLVQAGGSLRLSCAASGRTFVRYAMGWYRQAPGKERELVAAISWSGGSTYYADSVKGRFTISRDNAKNTVYLQMNSLKPADTAVYYCAAYYRGRNFDYCGQGTQVTVSS

>  <REPORTED RESULT>
high polyreactivity

$$$$
>  <RECORD SEQUENCE>
QVQLVESGGGLVQAGGSLRLSCAASGSTFQYNVMGWSRQAPGKERELVAAIRQSGSTTYYADSVKGRFTISRDNAKNTVYLQMNSLKPEDSAVYYCAKRYHNWANSRMDYWGQGSQVTVSS

>  <REPORTED RESULT>
low polyreactivity

$$$$
>  <RECORD SEQUENCE>
QVQLVESGGGLVQAGGSLRLSCAASGFTLRLYVMGWYRQAPGKERELVAAITSSGGSTYYADSVKGRFTISRDIAKNTVYLQMNSLKPEDTAVYYCAAVNRKSQLYGYWGQGTQVTVSS

>  <REPORTED RESULT>
high polyreactivity

$$$$
>  <RECORD SEQUENCE>
QVQLVESGGGLVQAGGSLRLSSAASGFIFEPYAMGWYRQAPGKERELVAAIRWSDGSTFYADSVKGRFTISRDTAKNTVYLQMNSLKPEDSAVYYCNAVYEHRRVGWVTIDYGYWGQGTQVTVSS

>  <REPORTED RESULT>
low polyreactivity

$$$$
>  <RECORD SEQUENCE>
QVQLVESGGGLVQAGGSLRLSCDASGSTIIRNAMGWSRQAPGKERELVAAISTSGGRTHYADSVKGRFTISRDNAKNTVYLKMNSLKPEDTAVYYCATRGKGHYYYWGQGTQVTVSS

>  <REPORTED RESULT>
high polyreactivity

$$$$
>  <RECORD SEQUENCE>
QVQLVESGGGLVQAGGSLRLSCAASGLIFTTYDMGWYRQAPGKERELVAAISASSDTTYYADSVKGRFTISRDNAKNTVYLQMNSLKPEDTAVYYCAADRFDFPTATGSNYWGQGTQVTVSS

>  <REPORTED RESULT>
low polyreactivity

$$$$
>  <RECORD SEQUENCE>
QVQRVESGGGLVQAGGSLRLSCAASGRIFGKYAMGWYRQAPGKERELVAAIDGSGSTNYADSVKGRFTISRDNAKNTVYLLMNSLKPEDTAVYYCATDHAQKFRYRSPREYWGQGTQVTVSS

>  <REPORTED RESULT>
low polyreactivity

$$$$
>  <RECORD SEQUENCE>
QVQLEESGGGLVQAGGSLRLTCAASGFIFQYYTMGWYRQAPGKERELVASITGTGGSTYYADSVKGRFTISRDNAKNTVYLQMNSLKPEDTAVYYCAAREGWGYEYDYWGQGTQVTVSS

>  <REPORTED RESULT>
high polyreactivity

$$$$
>  <RECORD SEQUENCE>
QVQLVESGGALVQAGGSLRLSCAASGSTFHRNAMGWYRQAPGKERELVAAITSGGSTNYADSVKGRFTISRDNAMNTVYLQLNSLKPEDTAVYSCAKDYRHYNRGWYDYWGQGTQVTVSS

>  <REPORTED RESULT>
low polyreactivity

$$$$
>  <RECORD SEQUENCE>
QVQLVESGGGLVQAGGSLRLSCAASGNIFGYYAMGWYRQAPGKERELVAAIRTRGGRTYYADSVKGRFTISRDNAKTTVYLQMNSLKPEDTAVYYGAARSIAGFWRYDYWGQGTQVTVSS

>  <REPORTED RESULT>
high polyreactivity

$$$$
>  <RECORD SEQUENCE>
QVQLVESGGGLVQAGGSLRLSCASSGRIFPYYAMGRYRQAPGKERDLVAAITSVGSTNYADSVKGRFTISRDNAKNTVYLQINSLKPEDTAVYYCAAESTEGTSGDYDYWAQGTQVTVSS

>  <REPORTED RESULT>
low polyreactivity

$$$$
